Quick list: Ki per entry.
target: rat TAAR1 (Rattus norvegicus (Rat), UniProt Q923Y9); assay: Radioligand binding assay on rat TAAR1; conditions: rat TAAR1, HEK-293 membranes; second value of the mouse/rat pair
Sequence (Q923Y9 whole entry): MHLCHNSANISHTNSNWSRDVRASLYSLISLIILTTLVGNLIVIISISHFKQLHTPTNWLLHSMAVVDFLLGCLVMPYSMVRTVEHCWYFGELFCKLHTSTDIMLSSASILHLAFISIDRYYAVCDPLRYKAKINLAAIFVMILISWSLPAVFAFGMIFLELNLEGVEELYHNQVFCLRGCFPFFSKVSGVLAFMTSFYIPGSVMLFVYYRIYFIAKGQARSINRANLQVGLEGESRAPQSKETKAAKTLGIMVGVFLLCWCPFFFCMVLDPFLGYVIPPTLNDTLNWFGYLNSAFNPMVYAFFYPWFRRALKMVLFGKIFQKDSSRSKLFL
Give the quantity in µM, number only.

Need Ki, item O=C(NCc1cccc(C(F)(F)F)c1)c1ccc2c(c1)CCN1CCNC[C@@H]21
0.137

Need Ki, item CCc1ccc2c(c1)CCN1CCNC[C@@H]21
0.288

Need Ki, item O=C(Nc1ccc2c(c1)CCN1CCNC[C@@H]21)c1ccc(Cl)cc1
0.0562

Need Ki, item O=C(Nc1ccc2c(c1)CCN1CCNC[C@H]21)c1ccc(Cl)cc1
0.0063

We next turn to a different compound, shown below.
Need Ki, item CN(C)c1cc(Nc2ccc3c(c2)CCN2CCNC[C@@H]32)nc(C(F)(F)F)n1
0.0076

###

molecular target: mouse TAAR1 (Mus musculus (Mouse), UniProt Q923Y8)
Sequence (Q923Y8 whole entry): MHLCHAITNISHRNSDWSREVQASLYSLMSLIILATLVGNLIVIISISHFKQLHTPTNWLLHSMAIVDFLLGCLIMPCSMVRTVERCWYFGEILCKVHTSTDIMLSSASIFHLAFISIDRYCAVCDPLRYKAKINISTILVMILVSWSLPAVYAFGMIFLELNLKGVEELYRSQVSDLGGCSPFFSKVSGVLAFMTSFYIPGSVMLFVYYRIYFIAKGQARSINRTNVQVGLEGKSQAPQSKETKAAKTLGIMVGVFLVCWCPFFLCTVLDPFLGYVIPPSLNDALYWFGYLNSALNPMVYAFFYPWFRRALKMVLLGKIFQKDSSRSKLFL
pKd: −log10 of the molar value.
endpointLabel: pKd

Need pKd, item CCN(C[C@H]1COC(N)=N1)c1ccccc1 [reference compound]
~9.15

###

target: mouse TAAR1 (Mus musculus (Mouse), UniProt Q923Y8); test: Radioligand binding assay on mouse TAAR1; settings: mouse TAAR1, HEK-293 membranes; first value of the mouse/rat pair
endpointLabel: log10(Ki) (log10 of the value in µM)
All values: log10 Ki [µM].

Use the examples below as a reference point.
Need log10(Ki), item O=C(Nc1ccc2c(c1)CCN1CCNC[C@H]21)c1cnc(C(F)(F)F)nc1
-0.72

Need log10(Ki), item O=C(Nc1ccc(Cl)nc1)c1ccc2c(c1)CCN1CCNC[C@@H]21
-1.40

Others:
Need log10(Ki), item O=C(Nc1ccc2c(c1F)CCN1CCNC[C@@H]21)c1ccnc(C(F)(F)F)c1
-0.35

Need log10(Ki), item COc1cc(Nc2ccc3c(c2)CCN2CCNC[C@@H]32)nc(C(F)(F)F)n1
-1.36

Need log10(Ki), item c1cc2c(cc1Nc1nc(C3CC3)no1)CCN1CCNC[C@@H]21
-1.46

Need log10(Ki), item FC(F)(F)c1nc(Cl)cc(Nc2ccc3c(c2)CCN2CCNC[C@@H]32)n1
-1.58

Need log10(Ki), item O=C(Nc1ccc(Cl)cc1)c1ccc2c(c1)CCN1CCNC[C@@H]21
-1.79

Need log10(Ki), item Fc1cc2c(cc1Nc1ncc(C(F)(F)F)cn1)CCN1CCNC[C@@H]21
-0.58

###

Target: mouse TAAR1 (Mus musculus (Mouse))
Test: Radioligand binding assay on mouse TAAR1
Details: mouse TAAR1, HEK-293 membranes; first value of the mouse/rat pair
Protocol: Construction of TAAR Expression Plasmids and Stably Transfected Cell Lines For the construction of expression plasmids the coding sequences of human, rat and mouse TAAR 1 were amplified from genomic DNA essentially as described by Lindemann et al.. The Expand High Fidelity PCR System (Roche Diagnostics) was used with 1.5 mM Mg^2+ and purified PCR products were cloned into pCR2.1-TOPO cloning vector (Invitrogen) following the instructions of the manufacturer. […]
endpointLabel: Ki (µM)
Give the quantity in µM, number only.

Use the examples below as a reference point.
Give mouse TAAR1 (Mus musculus (Mouse)) Ki for c1cnc(Nc2ccc3c(c2)CCN2CCNC[C@@H]32)nc1 [Example 22]
0.537

Give mouse TAAR1 (Mus musculus (Mouse)) Ki for CCc1n[nH]c(C(=O)Nc2ccc3c(c2)CCN2CCNC[C@@H]32)c1C [Example 41]
0.145

Give mouse TAAR1 (Mus musculus (Mouse)) Ki for O=C(Nc1ccc(C(F)(F)F)cc1)Nc1ccc2c(c1)CCN1CCNC[C@@H]21 [Example 35]
0.0025

Give mouse TAAR1 (Mus musculus (Mouse)) Ki for Cc1cc(Nc2ccc3c(c2)CCN2CCNC[C@@H]32)nc(C)n1 [Example 23]
0.165

We next turn to a different compound, shown below.
Give mouse TAAR1 (Mus musculus (Mouse)) Ki for CCc1ccc2c(c1)CCN1CCNC[C@@H]21 [Example 27]
0.266

###

target: rat TAAR1 (Rattus norvegicus (Rat)); experiment: Radioligand binding assay on rat TAAR1; details: rat TAAR1, HEK-293 membranes; second value of the mouse/rat pair
Quick list: Ki per entry.
Give the quantity in µM, number only.

Use the examples below as a reference point.
Need Ki, item c1cc2c(cc1C1CC1)CCN1CCNC[C@@H]21
0.815

Need Ki, item Cc1cc(C(=O)Nc2ccc3c(c2)CCN2CCNC[C@@H]32)nc(C(F)(F)F)n1
0.157

Need Ki, item Fc1c(Nc2ncc(C3CC3)cn2)ccc2c1CCN1CCNC[C@@H]21
0.105

Need Ki, item COc1ccc(NC(=O)Nc2ccc3c(c2)CCN2CCNC[C@@H]32)cc1
0.023

Others:
Need Ki, item c1cc2c(cc1Nc1nc(C3CC3)no1)CCN1CCNC[C@@H]21
0.198

###

target: rat TAAR1 (Rattus norvegicus (Rat), UniProt Q923Y9); test: Radioligand binding assay on rat TAAR1; conditions: rat TAAR1, HEK-293 membranes; second value of the mouse/rat pair
Response field label: string, one of label 1 (Ki strictly below 0.4 µM) or label 0.

Determine if O=C(Nc1cc2c(cc1F)[C@@H]1CNCCN1CC2)c1ccnc(C(F)(F)F)c1 [Example 16] shows Ki strictly lower than 0.4 µM.
label 0

Others:
Determine if O=C(Nc1ccc2c(c1)CCN1CCNC[C@H]21)c1cnc(C(F)(F)F)nc1 [Example 10] shows Ki strictly lower than 0.4 µM.
label 1

Determine if FC(F)(F)c1nccc(Nc2ccc3c(c2)CCN2CCNC[C@H]32)n1 [Example 11] shows Ki strictly lower than 0.4 µM.
label 0

Determine if Fc1c(Nc2cc(Cl)nc(C(F)(F)F)n2)ccc2c1CCN1CCNC[C@H]21 [Example 31] shows Ki strictly lower than 0.4 µM.
label 0

Determine if O=C(Nc1ccc(C(F)(F)F)cc1)Nc1ccc2c(c1)CCN1CCNC[C@@H]21 [Example 35] shows Ki strictly lower than 0.4 µM.
label 1

Determine if Cc1cc(Nc2ccc3c(c2)CCN2CCNC[C@@H]32)nc(C(F)(F)F)n1 [Example 20] shows Ki strictly lower than 0.4 µM.
label 1

###

biological target: mouse TAAR1 (Mus musculus (Mouse)); experiment: Radioligand binding assay on mouse TAAR1; details: mouse TAAR1, HEK-293 membranes; first value of the mouse/rat pair
Quick list: log10 of Ki per entry.
All values: log10 Ki [µM].

Use the examples below as a reference point.
Need log10 of Ki, item FC(F)(F)c1ccnc(Nc2ccc3c(c2)CCN2CCNC[C@@H]32)n1
-1.22

Need log10 of Ki, item O=C(Nc1ccc2c(c1)CCN1CCNC[C@H]21)c1ccc(Cl)cc1
-2.12

Need log10 of Ki, item O=C(Nc1cnc(Cl)nc1)c1ccc2c(c1)CCN1CCNC[C@@H]21
-0.51

Need log10 of Ki, item Nc1ccc2c(c1)CCN1CCNC[C@@H]21
0.04

Others:
Need log10 of Ki, item COc1ccc(NC(=O)Nc2ccc3c(c2)CCN2CCNC[C@@H]32)cc1
-2.00

Need log10 of Ki, item FC(F)(F)c1nccc(Nc2ccc3c(c2)CCN2CCNC[C@@H]32)n1
-1.45

Need log10 of Ki, item FC(F)(F)COc1cnc(Nc2ccc3c(c2)CCN2CCNC[C@@H]32)nc1
-2.11

Need log10 of Ki, item O=C(Nc1ccc2c(c1)CCN1CCNC[C@@H]21)c1ccc(Cl)cc1
-2.02

Need log10 of Ki, item O=C(Nc1ccc2c(c1)CCN1CCNC[C@H]21)c1ccnc(C(F)(F)F)c1
-1.84

###

molecular target: mouse TAAR1 (Mus musculus (Mouse)); experiment: Radioligand binding assay on mouse TAAR1; conditions: mouse TAAR1, HEK-293 membranes; first value of the mouse/rat pair
Response field label: string, one of condition met (Ki strictly below 1 µM) or condition not met.

Determine if FC(F)(F)c1nccc(Nc2ccc3c(c2)CCN2CCNC[C@H]32)n1 shows Ki strictly lower than 1 µM.
condition not met

Others:
Determine if Fc1c(Nc2ncc(C3CC3)cn2)ccc2c1CCN1CCNC[C@@H]21 shows Ki strictly lower than 1 µM.
condition met

Determine if Cc1cc(C(=O)Nc2ccc3c(c2)CCN2CCNC[C@@H]32)nc(C(F)(F)F)n1 shows Ki strictly lower than 1 µM.
condition met

Determine if O=C(Nc1cc2c(cc1F)[C@@H]1CNCCN1CC2)c1ccnc(C(F)(F)F)c1 shows Ki strictly lower than 1 µM.
condition met

Determine if c1cc2c(cc1C1CC1)CCN1CCNC[C@@H]21 shows Ki strictly lower than 1 µM.
condition not met

Determine if FC(F)(F)c1cnc(Nc2ccc3c(c2)CCN2CCNC[C@@H]32)cn1 shows Ki strictly lower than 1 µM.
condition met

###

target: rat TAAR1 (Rattus norvegicus (Rat))
endpointLabel: Kd

Need Kd, item CCN(C[C@H]1COC(N)=N1)c1ccccc1 [reference compound]
~2.3 nM
